# Test system: SW-620
# experimental details: NCI tumour cell line growth inhibition, 48 h
Calls of active or inactive are those of the source. Cut-off read from the data, not from the text of the source: active = GI50 up to about 1.1 µM and inactive = higher. Where a SMILES comes first, the peptide text is derived from it. [ ]: non-standard residue; d: D form. The star is where a group is joined. Phe(4-NO2) = N[CH](Cc1ccc([N+](=O)[O-])cc1)C(=O)O; Cbz = O=C(OCc1ccccc1)*
Please reply with one of these outcomes: Yes for active, No for inactive

Previously resolved entries follow.
- CC(=O)Nc1ccc(-c2nc3ccccc3s2)cc1I: No
- COC(=O)C(CC(C)=O)CS(=O)(=O)CC(=O)C(=O)Nc1cccc([N+](=O)[O-])c1 (stereo not drawn): No
- C=CCNC(=O)N(CCC)CCCCC(NC(C)=O)C(=O)NCc1ccccc1 (stereo not drawn): No
- O=C(N/N=C/C=C/c1ccccc1)[C@H](O)[C@@H](O)C(=O)N/N=C/C=C/c1ccccc1: No
- CCOC(=O)CCC(NC(=O)OCc1ccccc1)C(=O)NC(CCC(=O)OCC)C(=O)NC(Cc1ccc([N+](=O)[O-])cc1)C(=O)NC(CCC(=O)OCC)C(=O)NC(CCC(=O)OCC)C(=O)OCC (stereo not drawn) (Cbz-E(OEt)E(OEt)[Phe(4-NO2)]E(OEt)E(OEt)-OEt; configuration not given here): No
- CCN(CC)c1ccc2cc(-c3nc4ccccc4n3C)c(=O)oc2c1: Yes
- COc1cc(C=O)cc(/C=N/N=C/c2ccccc2O)c1O: No

Then this compound:
Please let me know the test result on file for O=C(O)CCC(O)=C1S(=O)(=O)OCCOS1(=O)=O . No

Ref: ChEMBL document CHEMBL1201862
